tested on: 192522-019-R-J2-PDC complex tumor spheroid viability; experiment: Anticancer human tumor 192522-019-R-J2-PDC patient-derived colon adenocarcinoma cell line growth inhibition [POLQ]; settings: second compound 0.0316 µM; first compound 0.316 µM; stronger effect = lower value;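 further: spheroids exposed to drugs for seven days before reading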
Parameter class (string): assigned from measured viability, T/C. Ranges: lower bin: < 80%; middle bin: ≥ 80% and < 90%; upper bin: ≥ 90%

Observe how each entry below is paired with its result.
# compound, class label
rows = [
    ("CCc1cc2c(N3CCc4c(cc(Cn5ccnc5)cc4-c4cn(C)nc4C(F)(F)F)C3=O)cc(C)nc2c(OC)n1 + Cc1cccc(N(C)C(=O)C2C(O)CCN2c2nc(C)cc(C(F)(F)F)c2C#N)c1", "middle bin"),
    ("COc1cccc2c1C(=O)c1c(O)c3c(c(O)c1C2=O)CC(O)(C(=O)CO)CC3OC1CC(N)C(O)C(C)O1 (stereo not given) + COC1C(OC(N)=O)C(O)C(Oc2ccc3c(O)c(NC(=O)c4ccc(O)c(CC=C(C)C)c4)c(=O)oc3c2C)OC1(C)C", "lower bin"),
    ("O=C(Nc1ccc(O)c(NS(=O)(=O)c2ccc(F)cc2)c1)c1ccc(-c2ccccc2)cc1 + Cc1cccc(N(C)C(=O)C2C(O)CCN2c2nc(C)cc(C(F)(F)F)c2C#N)c1", "upper bin"),
    ("CC1COCCN1c1cc(C2(O)CC3CCC(C2)O3)c2cnn(-c3ccn[nH]3)c2n1 (stereo not given) + COC1C(OC(N)=O)C(O)C(Oc2ccc3c(O)c(NC(=O)c4ccc(O)c(CC=C(C)C)c4)c(=O)oc3c2C)OC1(C)C", "lower bin"),
]

[ask] Which viability, T/C category applies to CC1COCCN1c1cc(C2(S(C)(=N)=O)CC2)nc(-c2ccnc3[nH]ccc23)n1 (stereo not given) + COC1C(OC(N)=O)C(O)C(Oc2ccc3c(O)c(NC(=O)c4ccc(O)c(CC=C(C)C)c4)c(=O)oc3c2C)OC1(C)C here?
[reply] upper bin
